- System: HCT-15 colon
- protocol notes: NCI-60 one-dose screen, 48 h (100 = growth as untreated, 0 = no growth, -100 = all killed)
- condition info: 10 µM unless noted
The panel holds about 83,000 compounds, 20% with a hit somewhere; the sample as a whole holds those more often.
So basically, if growth comes in under 80% it's Condition met, and if it's 80% or more it's Condition not met.

Below are worked cases with known answers.
| compound | target system | discrete label |
| --- | --- | --- |
| CCC(=O)OC1=C(C)SC2=NC(c3ccc(Cl)c(Cl)c3)=CC(c3cc(OC)c(OC)c(OC)c3)N21 (configuration not stated) | HCT-15 colon | Condition not met |
| COc1ccc(/C=C2\COc3ccc(O)c(O)c3C2=O)c(OC)c1 | HCT-15 colon | Condition met |
| O=C(CC1Sc2ccccc2NC1=O)NNc1ccc(F)cc1 (configuration not stated) | HCT-15 colon | Condition met |
| N#Cc1c(-c2ccccc2)nc(SCC2CO2)nc1N1CCOCC1 (configuration not stated) | HCT-15 colon | Condition met |
| CCCCCCCCN(CCCCCCCC)C(=N)c1ccnc2ccccc12 | HCT-15 colon | Condition met |
| Cc1c2c(cn1Cc1ccccc1)CCc1cn[nH]c1-2 | HCT-15 colon | Condition not met |
| CN(C)c1ccc(/C=C2\C=C(c3ccccc3)N(CCc3ccccc3)C2=O)cc1 | HCT-15 colon | Condition not met |
| Cc1ccc(C)c2c1C(=O)OC2=O | HCT-15 colon | Condition not met |
| COc1cc2c(cc1OC)-c1ccc3cc4c(cc3c1N(CCN1CCCC1)C2)OCO4 | HCT-15 colon | Condition met |
| COc1ccc(/C=C(\C#N)n2nnc3cc(F)c(F)cc32)c(OC)c1OC | HCT-15 colon | Condition met |

Query block: Quick check: does "C[C@H]1[C@H](C)CC[C@]2(C(=O)N3CCN(C)CC3)CC[C@]3(C)C(=CC[C@@H]4[C@@]5(C)C/C(=C/c6cccnc6)C(=O)C(C)(C)[C@@H]5CC[C@]43C)[C@H]12" have growth under 80%?
Result block: Condition met

Query block: Quick check: does "Clc1ccc2[nH]c3c(NCCCN4CCOCC4)ncnc3c2c1" have growth under 80%?
Result block: Condition not met

Query block: Quick check: does "C=CCO[C@H]1CO[C@H]2[C@@H]1OC[C@@H]2Oc1ccc(Nc2ccnc(Nc3ccc(O[C@H]4CO[C@H]5[C@@H]4OC[C@@H]5OCC=C)c(Cl)c3)n2)cc1Cl" have growth under 80%?
Result block: Condition met

Query block: Quick check: does "CC(C)(C)c1ccc(C(=O)Nc2sc3c(c2C(N)=O)CCC(=O)C3)cc1" have growth under 80%?
Result block: Condition met

Query block: Quick check: does "Cc1c(Cl)cccc1NS(=O)(=O)c1ccccc1" have growth under 80%?
Result block: Condition not met

Query block: Quick check: does "Nc1c(C(=O)Nc2ccccc2)sc2nc3c(cc12)CCCCCC3" have growth under 80%?
Result block: Condition met

Query block: Quick check: does CC(C)OC(=O)OCOP(=O)(OCOC(=O)OC(C)C)C1CCCN(O)C1=O (configuration not stated) have growth under 80%?
Result block: Condition met

Query block: Quick check: does "CNC(=O)c1cc(Oc2ccc3nc(Nc4cc(Cl)cc(Cl)c4)ccc3c2)ccn1" have growth under 80%?
Result block: Condition met

---

- Test system: OVCAR-3 ovarian
- protocol notes: NCI-60 one-dose screen, 48 h (100 = growth as untreated, 0 = no growth, -100 = all killed)
- condition info: 10 µM unless noted
About 83,000 compounds went through this panel and 20% of them were active in at least one assay; those are over-represented in the sample as a whole.
Assignment: determine reported growth for the given compounds.
Give bare numbers, in %.

Guide cases for growth, answers given:
| compound | growth, % |
| --- | --- |
| COc1ccccc1NC(=O)Nc1ccc(-c2nc3ccccc3o2)cc1 | 109 |
| Cl.Fc1c[c-]c(-c2ccccn2)c(F)c1.[Pt].c1ccc(P(c2ccccc2)C([PH+](c2ccccc2)c2ccccc2)[PH+](c2ccccc2)c2ccccc2)cc1 | 11 |
| COc1cc(C(=O)Nc2cc(O)c(CC=C(C)C)c(O)c2)cc2c1O[C@]1(C)CC[C@@H](O)C(C)(C)[C@H]1C2 | 27.7 |

Field: growth. Fill in for each record below.
1. CC1=NN(c2cccc(Cl)c2)C(=O)/C1=C\c1cn(CC(O)CN2CCCCC2)c2ccccc12 (stereo not given)
2. Cc1ccc(/C(=N\N=C(N)N)c2ccccc2)cc1
3. N#Cc1c(N)n2c(nc1=Nc1ccc([N+](=O)[O-])cc1)sc1cc(Cl)ccc12
4. Nc1c(C(=O)c2ccccc2)nnc2ncnn12
5. O=C1C2=C(CCN(Cc3ccccc3)C2)N2CCN=C2N1Cc1ccc(C(F)(F)F)cc1
6. O=C(Oc1ccc([N+](=O)[O-])cc1)c1ccc(CBr)cc1

Result block:
57.7
-38.5
108
105
23.9
114

Field growth (entry "NC(N)=N/N=C(/c1ccccc1)c1ccccc1F" ) reads -0.0856

---

Assignment: determine reported growth for the given compounds.
- Tested on: HCT-116 colon
- protocol notes: NCI-60 one-dose screen, 48 h (100 = growth as untreated, 0 = no growth, -100 = all killed)
- condition info: 10 µM unless noted
The panel holds about 83,000 compounds, 20% with a hit somewhere; the sample as a whole holds those more often.
Answers are plain numbers, in %.

Guide cases for growth, answers given:
| compound | growth (%) |
| --- | --- |
| CCCn1nc(-c2ccccc2)c2c(-c3ccccc3)onc2c1=O | 58.9 |
| N#Cc1cnn2c(-c3ccc(Cl)cc3)nc(NC3CC3)nc12 | 93.8 |
| CCOc1cc(N)ccc1C(=O)NCCCN(CC)CC | 98 |
| O=c1ccn(C2OC(F)(CO)C(O)C2F)c(=O)[nH]1 (stereo unspecified) | 104 |
| CCCCCOC(=O)c1cccc(NC(=O)CN(CC)CC)c1 | 74.9 |

Field: growth. Fill in for each record below.
1. O=c1oc2ccc(Cl)cc2cc1-c1cs/c(=N/N=C\c2ccc(Cl)cc2)n1/N=C/c1ccc(Cl)cc1
2. NC(N)=N/N=C/CO
3. O=C(/C=C/C12c3ccccc3C(c3ccccc31)C1C(=O)N(c3ccccc3)C(=O)C12)c1ccccc1 (stereo unspecified)
4. Nc1nc(I)c2ncn(C3OC(CO)C(O)C3O)c2n1 (stereo unspecified)
5. N#Cc1c(-c2ccc(C(F)(F)F)cc2)cc(N2CC(O)C2)n2c1nc1ccccc12
6. COc1cc2oc3cc(C)oc(=O)c3c2cc1OC
7. Cc1ccc(/C=C(\C#N)n2nnc3cc(Cl)c(Cl)cc32)cc1

Result block:
1. 91.9
2. 94.1
3. -57.7
4. 110
5. 55.4
6. 90.4
7. 8.31

---

- Test system: HS 578T breast
- protocol notes: NCI-60 one-dose screen, 48 h (100 = growth as untreated, 0 = no growth, -100 = all killed)
- condition info: 10 µM unless noted
The panel holds about 83,000 compounds, 20% with a hit somewhere; the sample as a whole holds those more often. Calls of active or inactive are those of the source. How the source made its calls: active means growth percent below 10; inactive means the rest.
Assignment: determine reported growth for the given compounds.

Guide cases for growth, answers given:
| given smiles | measurement label | result value |
| --- | --- | --- |
| CCCCCCCC/C=C\CCCCCCCC(=O)Oc1cccc2cccnc12 | growth | 138% (inactive) |
| C/C(=N\NC(=O)Cn1c(-c2ccc(S(C)(=O)=O)cc2)nc2cc(Cl)ccc21)c1ccc(Cl)cc1 | growth | 80.7% (inactive) |
| CN(C)c1ccc2cc(-c3ccc(Cl)c(Cl)c3)c(N)nc2c1 | growth | 62.4% (inactive) |

Field growth (entry "CN(CCC(=O)/C(=C\c1ccccc1)c1ccc(Cl)cc1)Cc1ccccc1" ) reads 28.9% (inactive)

---

- Test system: UO-31 renal
- protocol notes: NCI-60 one-dose screen, 48 h (100 = growth as untreated, 0 = no growth, -100 = all killed)
- condition info: 10 µM unless noted
The panel holds about 83,000 compounds, 20% with a hit somewhere; the sample as a whole holds those more often.
measurement label: growth (%)
Numbers only, in %.

Guide cases for growth, answers given:
| molecule | growth (%) |
| --- | --- |
| Nc1ccc2c(S(=O)(=O)O)ccc(S(=O)(=O)O)c2c1 | 81.6 |
| CC(=[N-])N1CCC[C@@H](Nc2c3ccccc3nc3ccccc23)C1.[Cl][Pt].[NH-]CCC[NH-] | 27.4 |
| Cc1nc(Nc2ccc(S(=O)(=O)Nc3cc(C)on3)cc2)c2ccccc2n1 | 84.2 |
| CCCn1nc(-c2ccccc2)c2c(-c3ccccc3)onc2c1=O | 68.8 |
| O=C1C(Cl)C(c2ccccc2Cl)N1n1cnnc1 (stereo not drawn) | 83.3 |
| O=C1CCC(N2C(=O)c3cccc(NCCCC4CCN(CCNC(=O)c5cc6c(o5)C(=O)c5ccccc5C6=O)CC4)c3C2=O)C(=O)N1 (stereo not drawn) | -72.9 |

Field: growth. Fill in for each record below.
1. Cc1ccc(NC(=O)C(Cl)Cl)cc1
2. O=C(c1ccccc1)c1ccc(Cl)c([N+](=O)[O-])c1

Result block:
[83, -87.9]

Field: growth. Fill in for each record below.
1. CCCCCCCC/C=C/CCCCCCCC1=NCC[N+]1(CCO)CCO
2. COc1cc2c(cc1OC)-c1ccc3cc4c(cc3c1N(CCCN(C)C)C2)OCO4
3. O=[N+]([O-])c1ccccc1C(O)Cc1ccc2ccccc2n1 (stereo not drawn)

Result block:
1. 65.4
2. 38.7
3. 66.6

Field: growth. Fill in for each record below.
1. C=C1C(=O)O[C@H]2[C@H]1CC/C(COC(=O)/C=C\C(=O)NCc1ccc(Cn3c(=O)sn(-c4ccc(C#N)cc4)c3=O)cc1)=C\CC[C@@]1(C)O[C@@H]21
2. CC1(C)N=C(N)N=C(N)N1c1ccc(Cl)c(Cl)c1

Result block:
1: -100; 2: 48.3
